Values compiled from patent US20170008928A1.

target: human cholecystokinin-1 receptor (CCK-1R) (Homo sapiens, UniProt P32238); construct: host or cells: 1321-N1 cells; test: In vitro receptor binding to CCK-1R, SPA displacement of [125I]-CCK-8s from plasma membranes
pIC50: −log10 of the molar value. Starred links: 1 amine or outer side, 2 acyl side, 3 side chain; linkers in the order of their positions; H or OH if unused. Non-standard residues stand in square brackets, D forms with d. Residues, ends and D or L forms follow the SMILES beside them. *: point of attachment. Phe(4-CH2SO3H) = N[C@@H](Cc1ccc(CS(=O)(=O)O)cc1)C(=O)O; sY = N[C@@H](Cc1ccc(OS(=O)(=O)O)cc1)C(=O)O; C18 diacid = O=C(O)CCCCCCCCCCCCCCCCC(=O)*; γGlu = O=C(O)[C@H](CCC(=O)[*:2])N[*:1]; NMeF = CN[C@@H](Cc1ccccc1)C(=O)O; dNMeD = CN[C@H](CC(=O)O)C(=O)O; Nle = CCCC[C@H](N)C(=O)O; AEEA = NCCOCCOCC(=O)O

[
  {
    "COMPOUND": "CCCC[C@H](NC(=O)[C@H](Cc1ccc(CS(=O)(=O)O)cc1)NC(=O)[C@H](CC(=O)O)NC(=O)COCCOCCNC(=O)COCCOCCNC(=O)CC[C@H](NC(=O)CCCCCCCCCCCCCCCCC(=O)O)C(=O)O)C(=O)NCC(=O)N[C@@H](Cc1c[nH]c2ccccc12)C(=O)N[C@@H](CCCC)C(=O)N(C)[C@H](CC(=O)O)C(=O)N(C)[C@@H](Cc1ccccc1)C(N)=O [Example 3] ({C18 diacid-γGlu-AEEA-AEEA}-D[Phe(4-CH2SO3H)][Nle]GW[Nle][dNMeD][NMeF]-NH2)",
    "pIC50": 9.59
  },
  {
    "COMPOUND": "CC(C)C[C@H](NC(=O)[C@H](Cc1ccc(OS(=O)(=O)O)cc1)NC(=O)[C@H](CC(=O)O)NC(=O)COCCOCCNC(=O)COCCOCCNC(=O)CC[C@H](NC(=O)CCCCCCCCCCCCCCCCC(=O)O)C(=O)O)C(=O)NCC(=O)N[C@@H](Cc1c[nH]c2ccccc12)C(=O)N[C@@H](C)C(=O)N(C)[C@H](CC(=O)O)C(=O)N(C)[C@@H](Cc1ccccc1)C(N)=O [Example 40] ({C18 diacid-γGlu-AEEA-AEEA}-D[sY]LGWA[dNMeD][NMeF]-NH2)",
    "pIC50": 9.19
  }
]

----------
# IC50 listing for each entry below
Target: human cholecystokinin-2 receptor (CCK-2R) (Homo sapiens)
Construct: host or cells: 1321-N1 cells (plasma membranes prepared by Evotec AG Hamburg)
Experiment: In vitro receptor binding to CCK-2R, SPA displacement of [125I]-CCK-8s from plasma membranes
Description: The in vitro binding affinity is a measure of the strength of attraction between a receptor and its ligand. Displacement of radio ligand was measured as reduction in light emission from SPA beads. […] A minimum of three biological replicates was measured for each test compound on separate assay plates.
Non-standard residues stand in square brackets, D forms with d. Residues, ends and D or L forms follow the SMILES beside them. sY = N[C@@H](Cc1ccc(OS(=O)(=O)O)cc1)C(=O)O; NMeF = CN[C@@H](Cc1ccccc1)C(=O)O; dNMeD = CN[C@H](CC(=O)O)C(=O)O

[
  {
    "COMPOUND": "CC(C)C[C@H](NC(=O)[C@H](Cc1ccc(OS(=O)(=O)O)cc1)NC(=O)[C@@H](N)CC(=O)O)C(=O)NCC(=O)N[C@@H](Cc1c[nH]c2ccccc12)C(=O)N[C@H](C(=O)N(C)[C@H](CC(=O)O)C(=O)N(C)[C@@H](Cc1ccccc1)C(N)=O)C(C)C [Example 65] (H-D[sY]LGWV[dNMeD][NMeF]-NH2)",
    "IC50": "> 10 µM"
  },
  {
    "COMPOUND": "CC(C)C[C@H](NC(=O)[C@H](Cc1ccc(OS(=O)(=O)O)cc1)NC(=O)[C@H](CC(=O)O)NC(=O)COCCOCCNC(=O)COCCOCCNC(=O)CC[C@H](NC(=O)CCCCCCCCCCCCCCCCC(=O)O)C(=O)O)C(=O)NCC(=O)N[C@@H](Cc1c[nH]c2ccccc12)C(=O)N[C@@H](CC(C)C)C(=O)N(C)[C@H](CC(=O)O)C(=O)N(C)[C@@H](Cc1ccccc1)C(N)=O",
    "IC50": "0.42 µM"
  },
  {
    "COMPOUND": "CC(C)C[C@H](NC(=O)[C@H](Cc1ccc(OS(=O)(=O)O)cc1)NC(=O)[C@@H](N)CC(=O)O)C(=O)NCC(=O)N[C@@H](Cc1c[nH]c2ccccc12)C(=O)N[C@@H](C)C(=O)N(C)[C@H](CC(=O)O)C(=O)N(C)[C@@H](Cc1ccccc1)C(N)=O [Example 84] (H-D[sY]LGWA[dNMeD][NMeF]-NH2)",
    "IC50": "> 10 µM"
  }
]

----------
Biological target: human cholecystokinin-2 receptor (human, UniProt P32239 1-447)
Sequence (looked up): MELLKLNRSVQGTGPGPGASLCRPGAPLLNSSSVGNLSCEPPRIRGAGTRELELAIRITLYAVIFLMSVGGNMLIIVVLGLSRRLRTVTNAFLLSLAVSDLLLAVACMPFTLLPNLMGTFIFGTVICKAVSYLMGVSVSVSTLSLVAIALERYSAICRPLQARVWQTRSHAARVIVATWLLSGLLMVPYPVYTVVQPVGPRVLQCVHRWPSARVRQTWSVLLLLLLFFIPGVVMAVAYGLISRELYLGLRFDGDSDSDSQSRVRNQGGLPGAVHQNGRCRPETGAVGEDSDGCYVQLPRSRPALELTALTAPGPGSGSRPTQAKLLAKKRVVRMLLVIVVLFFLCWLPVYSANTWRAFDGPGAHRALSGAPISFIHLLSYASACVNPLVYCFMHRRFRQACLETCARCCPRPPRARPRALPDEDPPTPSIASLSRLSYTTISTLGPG
Assay: SPA competition vs [125I]-CCK-8s, membranes

[
  {
    "SUBSTANCE": "Asp-sTyr-Nle-Gly-Trp-Nle-DMeAsp-1Nal-amide (peptide)",
    "TARGET OR TEST SYSTEM": "human cholecystokinin-2 receptor (human, UniProt P32239 1-447)",
    "UNIT OF MEASUREMENT": "nM",
    "IC50": 2300
  }
]

----------
Molecular target: human cholecystokinin-1 receptor (CCK-1R) (Homo sapiens, UniProt P32238)
Construct: host or cells: 1321-N1 cells
Sequence (P32238 1-428): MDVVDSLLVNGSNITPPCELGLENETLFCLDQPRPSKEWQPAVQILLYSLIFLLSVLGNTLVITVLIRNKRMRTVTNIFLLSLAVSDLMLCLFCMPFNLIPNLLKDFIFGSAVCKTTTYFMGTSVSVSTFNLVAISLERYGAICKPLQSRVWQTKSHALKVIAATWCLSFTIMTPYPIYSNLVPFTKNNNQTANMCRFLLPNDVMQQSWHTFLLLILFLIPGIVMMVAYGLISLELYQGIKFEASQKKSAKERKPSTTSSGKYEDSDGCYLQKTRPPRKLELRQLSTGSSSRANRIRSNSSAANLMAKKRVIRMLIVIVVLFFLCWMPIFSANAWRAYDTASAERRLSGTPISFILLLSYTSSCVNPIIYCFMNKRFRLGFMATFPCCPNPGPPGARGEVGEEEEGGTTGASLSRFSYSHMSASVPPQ
Assay: In vitro potency on CCK-1R, whole cell functional assay (IP1 accumulation, IP-One HTRF)
Assay type: cell-based
Conditions: 1321-N1 cells stably expressing CCK-1R; IP1 accumulation; average of min. three replicates; read-out: EC50 (CCK-1R)
Starred links: 1 amine or outer side, 2 acyl side, 3 side chain; linkers in the order of their positions; H or OH if unused. Non-standard residues stand in square brackets, D forms with d. Residues, ends and D or L forms follow the SMILES beside them. *: point of attachment. sY = N[C@@H](Cc1ccc(OS(=O)(=O)O)cc1)C(=O)O; C18 diacid = O=C(O)CCCCCCCCCCCCCCCCC(=O)*; γGlu = O=C(O)[C@H](CCC(=O)[*:2])N[*:1]; NMeF = CN[C@@H](Cc1ccccc1)C(=O)O; dNMeD = CN[C@H](CC(=O)O)C(=O)O; Nle = CCCC[C@H](N)C(=O)O; AEEA = NCCOCCOCC(=O)O

[
  {
    "COMPOUND": "CCCC[C@H](NC(=O)[C@H](Cc1c[nH]c2ccccc12)NC(=O)CNC(=O)[C@H](CO)NC(=O)[C@H](Cc1ccc(OS(=O)(=O)O)cc1)NC(=O)[C@@H](N)CC(=O)O)C(=O)N(C)[C@H](CC(=O)O)C(=O)N(C)[C@@H](Cc1ccccc1)C(N)=O [Example 79] (H-D[sY]SGW[Nle][dNMeD][NMeF]-NH2)",
    "EC50": "0.19 nM"
  },
  {
    "COMPOUND": "CCCC[C@H](NC(=O)[C@H](Cc1c[nH]c2ccccc12)NC(=O)CNC(=O)[C@H](CO)NC(=O)[C@H](Cc1ccc(OS(=O)(=O)O)cc1)NC(=O)[C@H](CC(=O)O)NC(=O)COCCOCCNC(=O)COCCOCCNC(=O)CC[C@H](NC(=O)CCCCCCCCCCCCCCCCC(=O)O)C(=O)O)C(=O)N(C)[C@H](CC(=O)O)C(=O)N(C)[C@@H](Cc1ccccc1)C(N)=O [Example 45] ({C18 diacid-γGlu-AEEA-AEEA}-D[sY]SGW[Nle][dNMeD][NMeF]-NH2)",
    "EC50": "0.31 nM"
  }
]
